Tested on: UCD52 (cells of a triple-negative basal-like breast cancer xenograft);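 note: PDX cells carrying CMV promoter-driven luciferase, viability read as total photon flux per second by IVIS imaging following D-luciferin, vehicle control 0.1% DMSO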
Assay: cell viability (% of vehicle); higher = less cytotoxic
Conditions: 10 µM; 72 h
cell viability listing for selected compounds.

COMPOUND: Cc1nnc(NS(=O)(=O)c2ccc(N)cc2)s1
cell viability: 81.2

COMPOUND: CCOc1ccc2ccccc2c1C(=O)NC1C(=O)N2C1SC(C)(C)C2C(=O)[O-].O.[Na+] (stereo not given) [Nafcillin Sodium]
cell viability: 96.1

COMPOUND: Cc1c(F)cc(C(=O)NC2CC2)cc1-c1ccc(C(=O)NCC(C)(C)C)cn1
cell viability: 58.1

COMPOUND: Br.COc1ccc2c3c1O[C@H]1C[C@@H](O)C=C[C@@]31CCN(C)C2
cell viability: 97.8

COMPOUND: CC1=C(C(=O)OC(C)C)C(c2cccc([N+](=O)[O-])c2)C(C(=O)OC2CN(C(c3ccccc3)c3ccccc3)C2)=C(N)N1 (stereo not given)
cell viability: 93.5

COMPOUND: Nc1nc2ccc(OC(F)(F)F)cc2s1
cell viability: 175

COMPOUND: CNC(=O)c1cc(Oc2ccc(NC(=O)Nc3ccc(Cl)c(C(F)(F)F)c3)cc2)ccn1.Cc1ccc(S(=O)(=O)O)cc1 [Sorafenib Tosylate]
cell viability: 82.6

COMPOUND: CC(S)C(=O)NCC(=O)O (stereo not given)
cell viability: 93.7

COMPOUND: Nc1ccc(S(=O)(=O)Nc2nccs2)cc1
cell viability: 96.5

COMPOUND: Nc1nc(=O)c2c([nH]1)NCC(CNc1ccc(C(=O)NC(CCC(=O)[O-])C(=O)[O-])cc1)N2C=O.O.O.O.O.O.[Ca+2] (stereo not given)
cell viability: 122

All values here come from the supplement of paper PMC6992640.
